Test system: PRMT1 (protein arginine N-methyltransferase 1)
measurementDescription: PRMT1 binders on small-molecule microarrays, primary screen, biochemical, small-molecule microarray, 635 nm fluorescence (AID 1088);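 note: binding of Prmt1 protein to compounds spotted on small-molecule microarray slides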
assaySetup: small-molecule microarray binding, higher = more signal
Listed here: items and their measured composite z-score.
experimentalEndpoint: composite z-score

# molecularString, number
measured = [
    ("C=CCNC(=O)[C@H]1[C@@H]2C(=O)O[C@@H](c3ccccc3)[C@@H](c3ccccc3)N2[C@@H](c2ccc(O)cc2)[C@]12C(=O)N(C(=O)OCCOC)c1ccc(C#Cc3ccc(OC)cc3)cc12", 1.42),
    ("COc1cc(Cc2cc3c(c(CCc4ccccc4)n2)[Si](C(C)C)(C(C)C)O[C@H]3c2ccccc2)cc(OC)c1OC", -0.651),
    ("C=CC[C@]12N=C(c3ccc(OCCCO)cc3)O[C@H]1c1ccccc1N(CCC)C2=O", 1.55),
    ("O=C(N1CCOCC1)[C@]1(CCS(=O)(=O)c2ccccc2)N=C(c2ccc(OCCCO)cc2)O[C@@H]1c1ccccc1", 1.45),
]
